Recorded values, source patent US20180207276A1.

Molecular target: T1, LGR7 (relaxin 2 receptor), recombinant, stably expressed in HEK293T cells with a CRE-Luc reporter (UniProt Q9HBX9 1-757, limits assumed)
T1 sequence (looked up): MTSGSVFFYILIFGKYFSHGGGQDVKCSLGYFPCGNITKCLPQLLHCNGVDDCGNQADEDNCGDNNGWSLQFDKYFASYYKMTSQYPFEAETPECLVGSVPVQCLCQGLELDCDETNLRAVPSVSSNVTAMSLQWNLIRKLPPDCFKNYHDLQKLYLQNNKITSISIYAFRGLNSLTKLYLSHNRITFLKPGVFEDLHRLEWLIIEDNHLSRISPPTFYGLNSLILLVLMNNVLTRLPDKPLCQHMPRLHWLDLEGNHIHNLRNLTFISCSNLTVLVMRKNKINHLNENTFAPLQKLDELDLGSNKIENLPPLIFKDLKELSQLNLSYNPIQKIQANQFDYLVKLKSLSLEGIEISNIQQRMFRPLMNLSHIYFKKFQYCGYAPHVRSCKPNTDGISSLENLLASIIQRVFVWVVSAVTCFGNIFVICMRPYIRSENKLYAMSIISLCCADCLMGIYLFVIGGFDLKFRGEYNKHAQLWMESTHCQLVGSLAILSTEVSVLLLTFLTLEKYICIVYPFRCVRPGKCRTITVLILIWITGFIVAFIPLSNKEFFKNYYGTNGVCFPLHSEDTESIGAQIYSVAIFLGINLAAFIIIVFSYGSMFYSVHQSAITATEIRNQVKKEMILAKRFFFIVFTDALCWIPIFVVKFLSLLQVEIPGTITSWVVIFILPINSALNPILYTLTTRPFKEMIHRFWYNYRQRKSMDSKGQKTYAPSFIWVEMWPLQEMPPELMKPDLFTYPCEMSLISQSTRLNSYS
Experiment: cell-based or functional assay
Primed or numbered codes have the meaning given here. No end group written: not given here. FA2″ = lipid moiety from Br-FA2: acetamide, two PEG2-propionic acid units, Lys and octadecanedioic acid; FA183 = acetamide-PEG5-Lys-octadecanedioic acid; FA155 = not defined here; FA2 = not defined here
Note to self: LGR7 EC50 (pM), CRE-Luc reporter in HEK293T cells expressing LGR7 under 200 pM means true, ties and anything higher get false.

>>> qualitative_label("Relaxin-B:D1A-A:Q1-L2C-FA2 (ligand, ends and bridges not checked) chain 1: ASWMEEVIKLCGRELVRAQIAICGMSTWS chain 2: QC(FA2″)YSALANKCCHVGCTKRSLARFC")
"false"
>>> qualitative_label("Relaxin-B:D1A (ligand, ends and bridges not checked; cysteine pairing not given here) chain 1: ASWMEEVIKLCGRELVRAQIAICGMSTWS chain 2: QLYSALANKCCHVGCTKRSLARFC")
"true"
>>> qualitative_label("Relaxin-B:D1A-A:Q1-L2C-FA183 (ligand, ends and bridges not checked) chain 1: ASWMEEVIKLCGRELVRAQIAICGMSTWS chain 2: QC(FA183)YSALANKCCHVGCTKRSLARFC")
"true"
>>> qualitative_label("Relaxin-B:D1A-A:Q1-L2C-FA155 (ligand, ends and bridges not checked) chain 1: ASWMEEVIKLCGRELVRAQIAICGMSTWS chain 2: QC(FA155)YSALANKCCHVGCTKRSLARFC")
"false"
>>> qualitative_label("Relaxin-B:D1A-A:Q1:V13C-FA2 (ligand, ends and bridges not checked) chain 1: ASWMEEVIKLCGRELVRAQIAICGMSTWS chain 2: QLYSALANKCCHC(FA2)GCTKRSLARFC")
"false"
>>> qualitative_label("Relaxin-B:D1A-A:pQ1-L2C-FA2 (ligand, pyroglutamate (pQ) at position 1; Cys 2 S-alkylated with FA2 (from Br-FA2, Example 6)) chain 1: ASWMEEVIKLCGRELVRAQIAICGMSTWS chain 2: XCYSALANKCCHVGCTKRSLARFC")
"false"
